# TARGET_UNDER_TEST: interaction of gp96 and AIMP1 (Mus musculus)
# Sequence (P08113 22-802): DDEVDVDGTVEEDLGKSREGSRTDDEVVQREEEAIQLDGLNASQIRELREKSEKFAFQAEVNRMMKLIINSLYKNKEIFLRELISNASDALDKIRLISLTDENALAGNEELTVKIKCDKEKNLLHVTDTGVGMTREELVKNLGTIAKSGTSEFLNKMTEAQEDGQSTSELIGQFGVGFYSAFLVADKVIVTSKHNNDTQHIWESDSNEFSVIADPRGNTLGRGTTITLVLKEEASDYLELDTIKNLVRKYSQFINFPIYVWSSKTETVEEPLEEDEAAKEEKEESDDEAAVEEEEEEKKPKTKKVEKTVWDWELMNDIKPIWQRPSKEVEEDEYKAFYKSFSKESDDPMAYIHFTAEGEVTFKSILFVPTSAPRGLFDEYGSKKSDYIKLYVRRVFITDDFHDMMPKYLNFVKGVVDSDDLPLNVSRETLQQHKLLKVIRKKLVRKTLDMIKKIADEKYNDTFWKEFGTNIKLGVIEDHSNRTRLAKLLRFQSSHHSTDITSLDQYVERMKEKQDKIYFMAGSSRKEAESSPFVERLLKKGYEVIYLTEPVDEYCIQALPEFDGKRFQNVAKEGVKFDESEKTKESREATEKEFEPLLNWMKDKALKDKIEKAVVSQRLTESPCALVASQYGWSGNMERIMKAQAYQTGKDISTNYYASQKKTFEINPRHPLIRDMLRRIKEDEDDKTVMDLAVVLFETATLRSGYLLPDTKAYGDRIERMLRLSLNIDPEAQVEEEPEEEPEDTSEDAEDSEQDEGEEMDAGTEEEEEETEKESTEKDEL
# RUN_DESCRIPTION: ELISA assay of gp96-AIMP1 interaction
# MEASUREMENT_SETUP: dose-dependent effect, ELISA; read-out: 50% inhibition of the interaction of gp96 and AIMP1
pIC50: −log10 of the molar value.
ENDPOINT: pIC50

Query block: Identify measured pIC50 associated with COC(=O)[C@@H](Oc1nc(OC)cc(OC)n1)C(C)C [GPM1]
Result block: ~7.52

* * *

# TARGET_UNDER_TEST: gp96 M738L (Homo sapiens, UniProt P14625, M742L)
# Sequence (P14625 22-803 M742L): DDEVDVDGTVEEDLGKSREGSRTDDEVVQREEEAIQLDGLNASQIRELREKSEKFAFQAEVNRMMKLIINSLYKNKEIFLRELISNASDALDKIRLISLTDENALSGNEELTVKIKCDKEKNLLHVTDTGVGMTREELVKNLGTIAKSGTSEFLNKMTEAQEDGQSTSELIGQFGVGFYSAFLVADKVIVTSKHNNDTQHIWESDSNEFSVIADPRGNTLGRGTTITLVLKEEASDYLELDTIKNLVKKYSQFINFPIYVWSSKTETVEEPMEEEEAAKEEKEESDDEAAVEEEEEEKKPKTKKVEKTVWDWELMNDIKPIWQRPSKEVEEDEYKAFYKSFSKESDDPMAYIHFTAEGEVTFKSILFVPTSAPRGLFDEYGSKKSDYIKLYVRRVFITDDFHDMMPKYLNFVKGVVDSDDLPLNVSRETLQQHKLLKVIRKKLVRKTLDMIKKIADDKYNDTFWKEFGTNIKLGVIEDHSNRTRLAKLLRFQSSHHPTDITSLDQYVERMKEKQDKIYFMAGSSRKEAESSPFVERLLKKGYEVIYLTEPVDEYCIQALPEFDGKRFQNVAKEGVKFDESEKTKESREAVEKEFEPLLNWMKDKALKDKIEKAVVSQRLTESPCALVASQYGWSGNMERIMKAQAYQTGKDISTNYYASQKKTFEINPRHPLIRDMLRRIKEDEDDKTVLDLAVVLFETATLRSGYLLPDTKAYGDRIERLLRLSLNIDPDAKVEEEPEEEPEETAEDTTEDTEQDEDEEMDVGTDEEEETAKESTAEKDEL
# RUN_DESCRIPTION: Surface plasmon resonance, GPM1 binding to gp96 mutant M738L
ENDPOINT: pKd
Give bare numbers, as −log10 of the molar value.

Query block: Specify reported pKd for the molecule shown: COC(=O)[C@@H](Oc1nc(OC)cc(OC)n1)C(C)C [GPM1]
Result block: 6.68
